Biological target: beta-klotho
Test: cell-based or functional assay
Measured parameter: Efficacy (ELK-luciferase assay, relative to wild-type FGF21)

| Binder | Result value |
| --- | --- |
| FGF21 truncation mutant 1-167 (ligand) HPIPDSSPLLQFGGQVRQRYLYTDDAQQTEAHLEIREDGTVGGAADQSPESLLQLKALKPGVIQILGVKTSRFLCQRPDGALYGSLHFDPEACSFRELLLEDGYNVYQSEAHGLPLHLPGNKSPHRDPAPRGPARFLPLPGLPPAPPEPPGILAPQPPDVGSSDPLS | ~20% |

Query binder follows.
Query :: Provide Efficacy (ELK-luciferase assay, relative to wild-type FGF21) value for the following binder: FGF21 truncation mutant 1-176 (ligand) HPIPDSSPLLQFGGQVRQRYLYTDDAQQTEAHLEIREDGTVGGAADQSPESLLQLKALKPGVIQILGVKTSRFLCQRPDGALYGSLHFDPEACSFRELLLEDGYNVYQSEAHGLPLHLPGNKSPHRDPAPRGPARFLPLPGLPPAPPEPPGILAPQPPDVGSSDPLSMVGPSQGRS
Result :: 105%

Hey, just so you know, these numbers are from patent US20210317176A1.
